Biological target: T1, Anti-CD28 Fab (SEQ ID NOs: 202, 203)
T1 construct: biotinylated and captured on neutravidin coated plates in the phage ELISA
T1 sequence (VH, as listed by the source, chain 1 of 2): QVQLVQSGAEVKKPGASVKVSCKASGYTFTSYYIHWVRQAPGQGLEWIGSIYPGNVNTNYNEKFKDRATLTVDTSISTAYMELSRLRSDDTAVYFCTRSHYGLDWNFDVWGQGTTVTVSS
T1 sequence (VL, as listed by the source, chain 2 of 2): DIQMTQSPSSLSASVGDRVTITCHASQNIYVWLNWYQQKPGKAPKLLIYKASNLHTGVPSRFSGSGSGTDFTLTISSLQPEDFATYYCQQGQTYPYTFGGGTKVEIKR
Test: phage ELISA, Fab on plate;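 further: crude clonal phage supernatants added to wells pretreated with blocking buffer with or without CD28 antigen, then bound phage read out via HRP-linked anti-M13 antibody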
property: Anti-CD28 Fab (SEQ ID NOs: 202, 203) signal

Record excerpt, results attached:
YCDGHLPVYMTKCL [Phage-679]
1.27
YCDGHSFHYMAKCL [Phage-740]
1.08
YCDGHEAEYMWKCL [Phage-727]
1.13
YCEGHLWEYMKKCL [Phage-748]
1.06
YCEGHIPAYMAKCL [Phage-746]
1.06

Query block: What Anti-CD28 Fab (SEQ ID NOs: 202, 203) signal value was documented for this binder, YCQGHLPQYIEKCL [Phage-721] ?
Result block: 1.14

Query block: What Anti-CD28 Fab (SEQ ID NOs: 202, 203) signal value was documented for this binder, YCAGHAEEYLEKCL [Phage-610] ?
Result block: 1.41

Query block: What Anti-CD28 Fab (SEQ ID NOs: 202, 203) signal value was documented for this binder, YCDGHIWPWIEKCL [Phage-731] ?
Result block: 1.11

Query block: What Anti-CD28 Fab (SEQ ID NOs: 202, 203) signal value was documented for this binder, YCEGHLYEYMWKCL [Phage-725] ?
Result block: 1.13

Query block: What Anti-CD28 Fab (SEQ ID NOs: 202, 203) signal value was documented for this binder, YCDGHAPQYMAKCI [Phage-665] ?
Result block: 1.3

Query block: What Anti-CD28 Fab (SEQ ID NOs: 202, 203) signal value was documented for this binder, YCDGHVVEYMSKCL [Phage-729] ?
Result block: 1.12

Query block: What Anti-CD28 Fab (SEQ ID NOs: 202, 203) signal value was documented for this binder, YCVGHLPQYMQKCL [Phage-599] ?
Result block: 1.43

Query block: What Anti-CD28 Fab (SEQ ID NOs: 202, 203) signal value was documented for this binder, YCDGHLQEYMQKCL [Phage-627] ?
Result block: 1.38

Query block: What Anti-CD28 Fab (SEQ ID NOs: 202, 203) signal value was documented for this binder, YCDGHLMEYKAKCL [Phage-613] ?
Result block: 1.41

Query block: What Anti-CD28 Fab (SEQ ID NOs: 202, 203) signal value was documented for this binder, YCEGHAAEYLWKCL [Phage-705] ?
Result block: 1.18

Query block: What Anti-CD28 Fab (SEQ ID NOs: 202, 203) signal value was documented for this binder, YCDGHSPEHMGKCL [Phage-615] ?
Result block: 1.4
